Measured Target: Fuc(a1-2)[Gal(a1-3)]Gal(b1-3)GlcNAc(b1-3)GalNAc
Procedure Details: glycan array binding signal (z-score within array); higher = stronger binding
Run Conditions: glycan notation: IUPAC condensed, linker removed
The full list was thinned out, with the strongest signals kept by preference.

[
  {
    "Binder": "XL-35 (Xenopus laevis) (protein) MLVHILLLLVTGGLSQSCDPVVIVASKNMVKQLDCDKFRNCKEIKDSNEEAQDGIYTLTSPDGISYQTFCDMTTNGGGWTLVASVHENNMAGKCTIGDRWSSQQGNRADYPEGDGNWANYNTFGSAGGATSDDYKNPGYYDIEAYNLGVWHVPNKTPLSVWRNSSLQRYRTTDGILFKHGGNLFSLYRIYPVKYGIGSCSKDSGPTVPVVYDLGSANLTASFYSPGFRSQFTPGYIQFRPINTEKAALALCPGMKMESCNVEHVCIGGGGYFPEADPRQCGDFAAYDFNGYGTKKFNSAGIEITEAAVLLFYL",
    "glycan array binding signal (z-score)": -0.477
  }
]
